target: trypsin; assay: phage TRF on trypsin
Measured Tryspin binding signal (FU) of individual entries
Include the unit right after the number.

[[record]]
binder = "KB_C10 (scFv on phage) (scFv, V domains shown) VH: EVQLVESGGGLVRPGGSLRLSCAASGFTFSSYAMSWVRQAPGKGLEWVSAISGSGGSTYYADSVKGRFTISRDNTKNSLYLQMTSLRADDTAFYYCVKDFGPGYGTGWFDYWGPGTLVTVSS VL: AVNWYQQLPGKAPKLLIYAAGPCPRILMRCKQDSDCLAGCVCGPNGFCGADSGVSDRFSGSKSGTSASLAITGLQAEDEGDYYCAAWDDSLNGLVFGGGTKVTVLG"
measurement = "119000 FU"

[[record]]
binder = "KB_A05 (scFv on phage) (scFv, V domains shown) VH: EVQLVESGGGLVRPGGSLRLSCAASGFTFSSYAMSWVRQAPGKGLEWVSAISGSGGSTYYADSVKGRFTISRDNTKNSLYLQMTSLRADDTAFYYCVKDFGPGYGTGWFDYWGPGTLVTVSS VL: AVNWYQQLPGKAPKLLIYAADKCPRILMRCKQDSDCLAGCVCGPNGFCGGGSGIPERFSGSKSGTSASLAISGLRSEDEADYYCATWDDNLNGVVFGGGTKLTVLG"
measurement = "121000 FU"


[Q] For KB_B02 (scFv on phage) (scFv, V domains shown) VH: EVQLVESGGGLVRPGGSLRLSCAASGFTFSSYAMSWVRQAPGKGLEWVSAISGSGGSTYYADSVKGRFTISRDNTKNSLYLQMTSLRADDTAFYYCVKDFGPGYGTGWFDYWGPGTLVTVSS VL: AVNWYQQLPGKAPKLLIYAAVGCPRILMRCKQDSDCLAGCVCGPNGFCGTGSGIPERFSGSKSGNTASLTISGLQAEDEGDYYCAAWDDSLSGPVFGGGTKLTVLG , what is its reported Tryspin binding signal (FU)?
[A] 116000 FU

The origin of these recorded values is patent US20230331827A1.
